Experiment: in vitro
Details: mouse, liver microsomes
Description: Metabolic stability in mouse liver microsomes assessed as intrinsic clearance at 0.5 uM incubated for 30 mins by LC-MS/MS analysis
recorded_metric: CLint scaled at 0.5 h, 0.5 µM (L/h/kg)

INPUT: Fill blank: measured CLint scaled at 0.5 h, 0.5 µM of the compound `CN(CCc1cc2ncccc2[nH]1)C(=O)c1ccccc1` is ____.
OUTPUT: 88.2

INPUT: Subsequent entry: `O=C(c1ccccc1)N1CCN(c2nc3ccccc3s2)CC1`
OUTPUT: 1480

INPUT: Subsequent entry: COc1ccc2cc(C(=O)N3CCCC(c4cc5ncccc5[nH]4)C3)[nH]c2c1 (stereo not drawn)
OUTPUT: 60.2

INPUT: Subsequent entry: O=C(c1cc(C(F)(F)F)no1)N1CCC(c2cc3ncccc3[nH]2)C1 (stereo not drawn)
OUTPUT: 325

INPUT: Subsequent entry: O=C(c1ccc(F)cc1)N1CCCC(c2cc3ncccc3[nH]2)C1 (stereo not drawn)
OUTPUT: 64.6

P. O=C(c1ccccc1)N1CCCC(c2cn3cccnc3n2)C1 (stereo not drawn)
Q. O=C(c1cc(C(F)(F)F)no1)N1CCCC(c2cc3ncc(Br)cc3[nH]2)C1 (stereo not drawn)
R. Cn1nccc1C(=O)N1CCCC(c2cc3ncccc3[nH]2)C1 (stereo not drawn)
S. COc1ccc2[nH]c(C3CCCN(C(=O)c4ccc(F)cc4)C3)cc2n1 (stereo not drawn)
T. Cc1ccoc1C(=O)N1CCCC(c2cc3ncccc3[nH]2)C1 (stereo not drawn)
INPUT: Please rank these compounds by CLint scaled at 0.5 h, 0.5 µM in descending order. Returns: the labels arranged in the requested order.
OUTPUT: T, Q, S, P, R

1. CC(C)(C)c1cc(C(=O)N2CCCC(c3cc4ncccc4[nH]3)C2)on1 (stereo not drawn)
2. Cc1nc(C)c(C(=O)N2CCCC(c3cc4ncccc4[nH]3)C2)o1 (stereo not drawn)
INPUT: Endpoint returns whichever of 1 and 2 has the numerically higher CLint scaled at 0.5 h, 0.5 µM. Let me know the label of the one you choose.
OUTPUT: 1
(1: 129 L/h/kg, 2: 18.9 L/h/kg)

P. OC1(c2cc3ncccc3[nH]2)CCN(Cc2ccccc2)CC1
Q. O=C(c1ccccn1)N1CCCC(c2cc3ncccc3[nH]2)C1 (stereo not drawn)
R. Cc1nc(C)c(C(=O)N2CCCC(c3cc4ncccc4[nH]3)C2)s1 (stereo not drawn)
INPUT: Please rank these compounds by CLint scaled at 0.5 h, 0.5 µM in descending order. Returns: the labels arranged in the requested order.
OUTPUT: P, R, Q
(P: 115 L/h/kg, R: 46.5 L/h/kg, Q: 31.4 L/h/kg)

a. COc1cccc(C(=O)N2CCCC(c3cc4ncccc4[nH]3)C2)c1OC (stereo not drawn)
b. O=C(c1cc(C2CC2)no1)N1CCOC(c2cc3ncccc3[nH]2)C1 (stereo not drawn)
INPUT: When the recorded CLint scaled at 0.5 h, 0.5 µM values are compared, which is smaller: that of a or that of b ? Let me know the label of the one you choose.
OUTPUT: b
(b: 16.7 L/h/kg, a: 156 L/h/kg)
